# Test system: HCT-116
# protocol: Compound is evaluated for an in vitro cytotoxicity assay against HCT116 tumor cell lines
# Format: functional, cell-based
# studyConditions: Homo sapiens
Field: pIC50. Provide a value for each of the compounds that follow.
Keep it numeric: pIC50 is minus log10 of the concentration in mol/L.

Q: For the compound CC(=O)O[C@H]1C(=O)[C@@]2(C)[C@H]([C@H](OC(=O)c3ccccc3)[C@]3(O)C[C@H](OC(=O)[C@H](O)[C@@H](NC(=O)c4ccccc4)c4ccccc4)C(C)=C1C3(C)C)[C@]1(OC(=O)N3CC3)CO[C@@H]1C[C@@H]2O , what pIC50 is on record?
Ans: 7.81

Q: Would you kindly share the measured pIC50 for CC(=O)O[C@H]1C(=O)[C@]2(C)[C@@H](O)CC3OC[C@@]3(OC(C)=O)[C@H]2[C@H](OC(=O)c2ccccc2)[C@]2(O)C[C@H](OC(=O)[C@H](O)[C@@H](NC(=O)c3ccccc3)c3ccoc3)C(C)=C1C2(C)C (some centres undefined) ?
Ans: 9.13

Q: Reported pIC50 for CC(=O)O[C@H]1C(=O)[C@]2(C)[C@@H](O)CC3OC[C@@]3(OC(C)=O)[C@H]2[C@H](OC(=O)c2ccccc2)[C@]2(O)C[C@H](OC(=O)[C@H](O)[C@@H](NC(=O)OC(C)(C)C)c3ccccc3)C(C)=C1C2(C)C (some centres undefined) : what is it?
Ans: 9.26

Q: Item CC(=O)O[C@H]1C(=O)[C@]2(C)[C@@H](O)CC3OC[C@@]3(OC(=O)N3CC3)[C@H]2[C@H](OC(=O)c2ccccc2)[C@]2(O)C[C@H](OC(=O)[C@H](O)[C@@H](NC(=O)c3ccccc3)c3ccco3)C(C)=C1C2(C)C (some centres undefined) has what recorded pIC50?
Ans: 8.16
